- System: SARS-CoV-2
- METHOD: Plaque Reduction Assay (PRA) of SARS-CoV-2 replication on VERO E6 cells
- Type: cell-based
- CONDITION PARAMETERS: Severe acute respiratory syndrome coronavirus 2, Vero C1008, read-out: SARS-COV-2 Inhibition IC50
REPORTED METRIC: IC50 (µM)
One number for each entry, in µM.

Query for SARS-CoV-2: what IC50 does the record show for CCC(CC)COC(=O)[C@H](C)N[P@](=O)(OC[C@H]1O[C@@](C#N)(c2ccc3c(N)ncnn23)[C@H](O)[C@@H]1O)Oc1ccccc1 [Remdesivir, reference compound] ?
3.9
